# experimental_system: Calmodulin-1 (Homo sapiens) (UniProt P0DP23)
# procedure_summary: calcium-bound CALM1 binders on microarrays, profiling panel, artefact control for SMM control-protein annotation, biochemical, small-molecule microarray, Cy5-labelled CALM1, plus calcium (AID 1112);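 note: score merges spot fluorescence with signal to noise from triplicate slides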
# settings: Cy5-CALM1 binding fluorescence, higher = more signal
Use 1 when the recorded composite z-score is no lower than -0.7; use -1 when it is lower.

{"columns": ["compound", "experimental_system", "discrete_label"],
 "data": [
  ["CC1(C)OCC(C(O)C2=CCCCC2=O)CO1 (stereo not given)", "Calmodulin-1 (Homo sapiens) (UniProt P0DP23)", -1],
  ["CCOC(=O)[C@H](Cc1ccccc1)NC(=O)CCC1CC(OC(=O)NCc2ccc3c(c2)OCO3)CC2(CCCC(COC(=O)NCc3ccccc3)O2)O1 (stereo not given in full)", "Calmodulin-1 (Homo sapiens) (UniProt P0DP23)", 1],
  ["CCCNC(=O)[C@@H]1c2ccccc2C(=O)N(c2ccc(C)cn2)[C@H]1c1ccc(CO)cc1", "Calmodulin-1 (Homo sapiens) (UniProt P0DP23)", 1],
  ["Cn1c(=O)n2n(c1=O)[C@H]1[C@H](O)[C@@H]3O[C@@H]3C(=NOC[C@@H](O)COCc3ccco3)[C@H]1CC2", "Calmodulin-1 (Homo sapiens) (UniProt P0DP23)", -1],
  ["CC(C)C[C@@H]1NC(=O)[C@H]2C[C@@H](C(=O)O)[C@@H](c3ccc(O)cc3)N2C1=O", "Calmodulin-1 (Homo sapiens) (UniProt P0DP23)", 1],
  ["CC(C)c1ccc(NN2C(C(O)c3ccc4c(c3)OCO4)C=CC3C(=O)N(c4ccccc4)C(=O)C32)cc1 (stereo not given)", "Calmodulin-1 (Homo sapiens) (UniProt P0DP23)", 1],
  ["CCN1C(=O)[C@H]2[C@H]3[C@H](O)[C@H](O)CC(=NOCC=C(C)CCC=C(C)C)[C@H]3CC[C@H]2C1=O", "Calmodulin-1 (Homo sapiens) (UniProt P0DP23)", -1],
  ["COc1cccc([C@H]2Oc3ccc(OC)cc3C(=NO[C@H](C)c3cn([C@@H]4COC[C@H]4O)nn3)[C@@H]2O)c1", "Calmodulin-1 (Homo sapiens) (UniProt P0DP23)", 1],
  ["Cc1cc2c(nc1C)CCCN2CC(O)CN1CCN(C)CC1 (stereo not given)", "Calmodulin-1 (Homo sapiens) (UniProt P0DP23)", 1],
  ["COC(=O)CC=C[C@@H](C)[C@@H](C=NO[C@@H](C)c1cc(-c2c(C)cc(C)cc2C)no1)OC", "Calmodulin-1 (Homo sapiens) (UniProt P0DP23)", -1],
  ["CCOC(=O)NN=C1C[C@@H](O)[C@@H](O)[C@@H]2[C@@H]3C(=O)N(C(C)(C)C)C(=O)[C@@H]3CC[C@@H]12", "Calmodulin-1 (Homo sapiens) (UniProt P0DP23)", -1],
  ["COC(=O)C1(C)C=C2C(=C(c3ccccc3)C(=O)C2C)CN1 (stereo not given)", "Calmodulin-1 (Homo sapiens) (UniProt P0DP23)", 1],
  ["COc1ccc(O[C@H]2C=C[C@@H](c3ccccc3)O[C@@H]2COC(=O)CCC(C)=NOC[C@@H](C)[C@H](OCc2ccccc2)C(C)C)cc1", "Calmodulin-1 (Homo sapiens) (UniProt P0DP23)", -1],
  ["CCOC(=O)[C@H](CC(C)C)NC(=O)CCC1CC(OC(=O)NCc2cccc3ccccc23)CC2(CCCC(COC(=O)NCCN3CCOCC3)O2)O1 (stereo not given in full)", "Calmodulin-1 (Homo sapiens) (UniProt P0DP23)", -1],
  ["C[C@@H]1C=CCC(=O)OC[C@H](C)C(=O)N2CCC[C@H]2C(=O)OC1", "Calmodulin-1 (Homo sapiens) (UniProt P0DP23)", -1],
  ["COCCOC(=O)N1C(=O)[C@@]2(c3ccccc31)[C@H](C(N)=O)[C@H]1C(=O)O[C@H](c3ccccc3)[C@H](c3ccccc3)N1[C@@H]2c1ccccc1OCCO", "Calmodulin-1 (Homo sapiens) (UniProt P0DP23)", 1],
  ["COc1ccc(OC[C@H]2Cc3c(-c4ccccc4)nc4c(c3CO2)CN(CCOc2ccccc2)CC4)cc1", "Calmodulin-1 (Homo sapiens) (UniProt P0DP23)", 1],
  ["CCOC(=O)[C@H](CC(C)C)NC(=O)CCC1CC(OC(=O)NCc2cccc3ccccc23)CC2(CCCC(COC(=O)NCCc3ccccc3OC)O2)O1 (stereo not given in full)", "Calmodulin-1 (Homo sapiens) (UniProt P0DP23)", 1],
  ["COc1ccc([Si](C)(C)[C@@H]2[C@@H](CC(=O)N3CCC[C@H]3CO)O[C@]3(C(=O)N(Cc4cccc(N5CCC5=O)c4)c4ccccc43)[C@H]2C)cc1", "Calmodulin-1 (Homo sapiens) (UniProt P0DP23)", 1],
  ["CCOC(=O)CCN1C(=O)[C@H]2[C@H]3[C@H](O)[C@H](O)CC(=NOC[C@@H](O)COCc4ccco4)[C@H]3CC[C@H]2C1=O", "Calmodulin-1 (Homo sapiens) (UniProt P0DP23)", 1],
  ["CC(=O)OC[C@H]1O[C@@H](ON=C[C@@H](C)[C@H](OCc2ccccc2)C(C)C)[C@H](OC(C)=O)[C@@H](OC(C)=O)[C@@H]1OC(C)=O", "Calmodulin-1 (Homo sapiens) (UniProt P0DP23)", -1],
  ["Cc1ccc(S[C@]2(C(=O)NCC(F)(F)F)CC(=O)N(Cc3ccccc3Cl)[C@@H]2c2ccc(CO)cc2I)cc1", "Calmodulin-1 (Homo sapiens) (UniProt P0DP23)", 1],
  ["COCCCNC(=O)[C@]1(Cc2ccccc2)N=C(c2ccc(OCCCO)cc2)O[C@@H]1c1ccccc1", "Calmodulin-1 (Homo sapiens) (UniProt P0DP23)", 1],
  ["CC(=O)C[C@H](O)[C@@H](NC(=O)OC(C)(C)C)C(C)C", "Calmodulin-1 (Homo sapiens) (UniProt P0DP23)", 1],
  ["CC1CC/C=C\\[C@H]2OC34C=CCN(Cn5nnc6ccccc65)C(=O)[C@H]3N(CCO)C(=O)[C@@H]4C2C(=O)O1 (stereo not given in full)", "Calmodulin-1 (Homo sapiens) (UniProt P0DP23)", 1],
  ["C=C(COC)/C(=C/C[C@H](OC(=O)c1ccncc1)c1ccc(CO)o1)c1cc(C(=O)OC)ccc1OC", "Calmodulin-1 (Homo sapiens) (UniProt P0DP23)", 1],
  ["C=CCN1C(=O)[C@]2(O[C@H](CCn3cc(CCO)nn3)[C@@H]([Si](C)(C)c3ccc(OC)cc3)[C@@H]2C)c2cc(N3CCOC3=O)ccc21", "Calmodulin-1 (Homo sapiens) (UniProt P0DP23)", 1],
  ["COC(=O)[C@@]1(Cc2ccc(F)cc2)[C@@H]2C(=CC(=O)[C@H]2CC(=O)C(=O)N(C)C)CN1C(=O)c1ccccc1", "Calmodulin-1 (Homo sapiens) (UniProt P0DP23)", 1],
  ["COc1ccc([Si](C)(C)[C@H]2[C@H](CC(=O)N3CCC[C@H]3CO)O[C@@]3(C(=O)N(Cc4cccc(N5C(=O)COc6ccccc65)c4)c4ccccc43)[C@@H]2C)cc1", "Calmodulin-1 (Homo sapiens) (UniProt P0DP23)", 1]
]}
